- procedure-text: Mycobacterium tuberculosis growth inhibition, primary screen (AID 1259343)
- condition-info: at 10 µM, stronger effect = higher value
In all, about 6,200 compounds went through this assay and about 2,900 (47%) were called active. The set was probably picked from earlier hits. Some of the results follow.
Catalogue of inhibition readings, one per entry.
Hi! Could you send only the number? It should be in %, unit omitted.

Answered examples (4):
O=S(=O)(Nc1cccc(Br)c1)c1ccc(Cl)s1 = 84.1
FC(F)(F)c1ccnn1-c1nc(-c2ccc(Br)cc2)cs1 = 16.4
Fc1ccc(-c2cnc(CSc3nnnn3C3CC3)o2)cc1 = 8.58
CC1CCc2c(sc3nc(-c4ccc(N(C)C)cc4)nc(N4CCNCC4)c23)C1 (stereo not drawn) = 94.9

Input line: Returns the measured inhibition for the input compound. Input: `O=S(=O)(Nc1cccc(Br)c1)c1ccc(Br)s1`
Output line: 97.3

Input line: And what about the compound COCCN=c1scc(-c2ccc(OC(F)F)cc2)n1N=CC1CC2C=CC1C2 (stereo not drawn) ?
Output line: 101

Input line: And what about the compound `COc1ccc(/C=N\n2c(-c3ccc(Cl)cc3)csc2=N)cc1` ?
Output line: 38.1

Input line: And what about the compound CC(Nc1nccc(C(F)(F)F)n1)c1ccc(C#N)cc1 (stereo not drawn) ?
Output line: 22.5

---

- procedure-text: Mycobacterium tuberculosis growth inhibition, primary screen (AID 1259343)
- condition-info: at 10 µM, stronger effect = higher value
Out of some 6,200 compounds screened, about 2,900 (47%) were called active. The set was probably picked from earlier hits. The list shows a part of the results.
outcome-measure: inhibition (%)
Hi! Could you send only the number? It should be in %, unit omitted.

O=C(Cc1cc(-c2cc3ccccc3o2)on1)NCc1ccncc1 = 75.1
CCOC(=O)COc1ccc2c(=O)c(-c3ccccc3)c(C)oc2c1 = 41.9
COCCCn1c(-c2ccccc2)nc2oc3cc(OC)ccc3c(=O)c2c1=O = -18.5
CC(C)(C)n1ncc(NCC2CCCc3ccccc32)c(Cl)c1=O (stereo unspecified) = 22.4
C=C(C)COc1ccc2c(=O)c(-c3ccccc3)c(C)oc2c1 = 51.9

Could you now consider this next molecule?
Input line: Returns the measured inhibition for the input molecule. Input: `O=c1c(Cl)c(NCC2CCC2)cnn1-c1ccc(Cl)cc1`
Output line: 58

---

- procedure-text: Mycobacterium tuberculosis growth inhibition, primary screen (AID 1259343)
- condition-info: at 10 µM, stronger effect = higher value
Among all 6,200 compounds or so, about 2,900 (47%) were called active. The set was probably picked from earlier hits. The list shows a part of the results.
The following ranges of inhibition define the classes used here: I: < 20%; II: ≥ 20% and < 80%; III: ≥ 80%

Worked examples, 4 compounds total:
O=C(Nc1nnc(C(F)(F)F)s1)C1(c2cccc(Cl)c2)CC1 = III
CC(NCc1cn(C)nc1-c1ccc(Oc2ccccc2)cc1)c1ccccc1 (stereo unspecified) = II
COc1cc(NC(=O)C2(c3ccccc3)CC2)c(OC)cc1Cl = I
O=C(c1cccs1)C1CCCN(Cc2nc(COc3ccccc3)no2)C1 (stereo unspecified) = III

Input line: # bin label for `FC(F)(F)c1nnc(N2CCN(c3ccc(Cl)cc3)CC2)s1`
Output line: I

Input line: And what about the compound `N#Cc1cccc(C(=O)NCc2cccnc2OC2CCCC2)c1` ?
Output line: I

Input line: And what about the compound `O=C(Cn1ncc(Cl)c(Cl)c1=O)c1cc(F)ccc1F` ?
Output line: I

Input line: And what about the compound Clc1cccc(C2CCN(Cc3nc(COc4ccccc4)no3)C2)c1 (stereo unspecified) ?
Output line: III

Input line: And what about the compound `O=C(Cn1ncc(Cl)c(Cl)c1=O)c1ccc2c(c1)CCC2` ?
Output line: III

Input line: And what about the compound `Cc1nn(C)c(C)c1CCC(=O)Nc1ccc(C(C)(C)C#N)cc1` ?
Output line: II

---

- procedure-text: Mycobacterium tuberculosis growth inhibition, primary screen (AID 1259343)
- condition-info: at 10 µM, stronger effect = higher value
Among all 6,200 compounds or so, about 2,900 (47%) were called active. The set was probably picked from earlier hits. The list shows a part of the results.
outcome-measure: inhibition (%)
Hi! Could you send only the number? It should be in %, unit omitted.

O=c1c(-c2cccc(Br)c2)[n+]([O-])c2ccccc2n1O = 5.77
COC(=O)Cc1ccc(NC(=O)c2cnccn2)cc1 = 87.5
Nc1ccccc1Cc1ccc(O)cc1 = 30.5
Cc1ccc(NC(=O)C2CC(=O)N(C3CC3)C2)cc1C(F)(F)F (centres undefined) = 63.6
O=C(NCCOc1ccccc1F)C12CC3CC(CC(C3)C1)C2 = 31.1

Could you now consider this next molecule?
Input line: Returns the measured inhibition for the input molecule. Input: CCOc1ccc(N2C(=O)CSC2c2ccccc2N)cc1 (centres undefined)
Output line: 90.3

---

- procedure-text: Mycobacterium tuberculosis growth inhibition, primary screen (AID 1259343)
- condition-info: at 10 µM, stronger effect = higher value
The whole screen tested about 6,200 compounds, of which about 2,900 (47%) were called active. So high a share suggests a set chosen from earlier hits. The list shows a part of the results.
Catalogue of inhibition readings, one per entry.
Hi! Could you send only the number? It should be in %, unit omitted.

Answered examples (4):
CC(C)c1cccc(N(C)Cc2cncn2C)c1 = 42.1
Oc1c(Br)cc(C=NNc2ccccn2)cc1Br = 97.7
Cc1ccc(OCc2cc(C(=O)N(C)Cc3csc(-c4ccccc4)n3)no2)cn1 = 73
CC(Cc1ccco1)NC(=O)c1cc2c(s1)CCC2 (stereo unspecified) = 93.1

Input line: Returns the measured inhibition for the input compound. Input: `CC(C)c1nc(CNC(=O)c2cc(COc3c(F)cccc3F)on2)cs1`
Output line: 23.3

Input line: And what about the compound CN(CCC(O)c1ccccc1)C(=O)c1cc(COc2cccc3cnccc23)on1 (stereo unspecified) ?
Output line: 48.2

---

- procedure-text: Mycobacterium tuberculosis growth inhibition, primary screen (AID 1259343)
- condition-info: at 10 µM, stronger effect = higher value
Out of some 6,200 compounds screened, about 2,900 (47%) were called active. So high a share suggests a set chosen from earlier hits. The list shows a part of the results.
# binarize inhibition: threshold 40% inclusive, high side Yes, low side No

Worked examples, 3 molecules total:
O=C(O)c1cc(Br)c2ccccc2c1O = Yes
O=C(Nc1ccc(-c2ccccc2)cc1Cl)C1CC1 = Yes
CN(Cc1ccc2ccccc2c1)C(=O)COc1ccccc1F = No

Input line: Quick check: does `Cc1ccc(CN(C)C(=O)COc2ccc(O)cc2)o1` have inhibition greater than or equal to 40%?
Output line: Yes

---

Catalogue of inhibition readings, one per entry.
- procedure-text: Mycobacterium tuberculosis growth inhibition, primary screen (AID 1259343)
- condition-info: at 10 µM, stronger effect = higher value
The whole screen tested about 6,200 compounds, of which about 2,900 (47%) were called active. The set was probably picked from earlier hits. This is one part of the list.
Hi! Could you send only the number? It should be in %, unit omitted.

Answered examples (5):
CC(NC(=O)c1cc(Cl)ccn1)c1cccc(OC(F)F)c1 (stereo not given) = 70.3
CCCCC(CC)CNS(=O)(=O)c1cccc(F)c1 (stereo not given) = 45.9
Cc1[nH]n(-c2ccc(Cl)cc2)c(=O)c1C1=C(c2c[nH]c3ccccc23)C(=O)N(Cc2ccc(F)cc2)C1=O = 61.5
COc1cc(NC(=O)c2ccc(C)o2)cc(OC)c1 = 81.4
Cn1c(=S)[nH]c2c(-c3ccccc3)csc2c1=O = 20.9

Input line: Returns the measured inhibition for the input compound. Input: `CCCS(=O)(=O)NCc1nc(NCCCc2ccccc2)c2ccccc2n1`
Output line: 33.8

Input line: And what about the compound CC(C)CCCC(C)Nc1ncnc2sccc12 (stereo not given) ?
Output line: 60.5

Input line: And what about the compound `CN(C1CCCCC1)S(=O)(=O)c1ccc2ccccc2c1` ?
Output line: 38.7

Input line: And what about the compound `BrC12CC3CC(C1)CC(c1nnc(-c4ccco4)o1)(C3)C2` ?
Output line: 23.4

Input line: And what about the compound `O=C1NC(=O)C(=Cc2ccc(F)cc2)S1` ?
Output line: -10.1

Input line: And what about the compound `Cc1sc2nc(CSc3ccc(Br)cc3)nc(-n3ccnc3)c2c1C` ?
Output line: -19.2

Input line: And what about the compound `CCCOc1ccc(C=C2SC(=S)NC2=O)cc1` ?
Output line: 86.5

Input line: And what about the compound `FC(F)(F)c1ccc2c(c1)n(Cc1ccc(Cl)c(Cl)c1)c1[n+]2CCCCC1` ?
Output line: 10.6

Input line: And what about the compound CC1(C)C2CCC1(C)C(Nc1ncnc3sccc13)C2 (stereo not given) ?
Output line: 41.4

Input line: And what about the compound `Fc1ccccc1-c1nnc(SCc2ccccc2Br)o1` ?
Output line: 1.69
